Tested on: Plasmodium falciparum
Test: GSK_TCMDC: Inhibition of Plasmodium falciparum 3D7 in whole red blood cells, using parasite LDH activity as an index of growth. Test compounds present at 2uM
Assay type: functional
Answer each item with its documented Inhibition.
Write the answer as a number in %, unit excluded.

Requested field: Inhibition. Item: `O=C(Nc1cccc(-c2nn3ccccc3c2-c2ccnc(Nc3ccc(Cc4ccncc4)cc3)n2)c1)c1c(F)cccc1F` 97

Same question for `CC1(C)NC(N)=NC(=N)N1OCc1cc(Cl)c(Cl)cc1CON1C(=N)N=C(N)NC1(C)C` please. 98

Same question for `CN(C)CCC1CCN(CCS(=O)(=O)c2cccc(Nc3ccc(-c4cccc(F)c4)cn3)c2)CC1` please. 100

Same question for CCNc1cc(C(=O)N[C@@H](Cc2ccccc2)[C@H](O)CNC(C)Cc2cccc(Cl)c2)cc(N2CCCCS2(=O)=O)c1.Cl (some centres undefined) please. 98

---

Test system: Plasmodium falciparum
Assay: GSK_TCMDC: Inhibition of Plasmodium falciparum Dd2 in whole red blood cells, using parasite LDH activity as an index of growth. Test compounds present at 2uM
Format: functional
property: Inhibition (%)
Write the answer as a number in %, unit excluded.

Missing value: Inhibition, Plasmodium falciparum, entry `Cl.OCC(CO)(CO)NCc1ccc2c3c(cccc13)-c1ccccc1-2` . Fill in? 76

Same question for N#Cc1cc(C(=O)Nc2ccccc2)c(N)nc1SCC(=O)NC(c1ccccc1)c1cccs1 (centres undefined) please. 100

Same question for `O=C(NC1CCCCC1)N(Cc1ccc(-c2cccc(CNC3CCCC3)c2)cc1)C1CCN(Cc2ccccc2)CC1.O=C(O)C(F)(F)F` please. 59

Same question for `CCCCCn1c(Sc2ccc(C#N)c([N+](=O)[O-])c2)nnc1-c1ccccc1` please. 15

Same question for `COc1ccc(Nc2nc(N/N=C/c3ccc(O)cc3)nc(Nc3ccc([N+](=O)[O-])cc3)n2)cc1` please. 16

Same question for `Cc1c(S(=O)(=O)Nc2ccc3nccc(N4CCN[C@H](C)C4)c3c2)sc2ccc(Cl)cc12.Cl` please. 0

Same question for `Cc1[nH]c(C)c(-c2ccc(OCc3ccc(F)cc3)nc2)c(=O)c1Br` please. 97

Same question for `COc1cc(Nc2nccc(-c3c(-c4cccc(NC(=O)c5c(F)cccc5F)c4)nn4ccccc34)n2)cc(OC)c1OC` please. 98

Same question for CCC(O)c1ccc(Br)cc1NC(=O)c1cccc(Cl)c1 (centres undefined) please. 52

---

Tested on: HepG2
Assay: GSK_TCMDC: Percent inhibition of human HepG2 cell line. Test compounds present at 10uM.
Assay type: functional
# note: exactly 30% is not below, so it is not fulfilled; use fulfilled for Inhibition strictly under it

Bench note: check whether O=C(/C=C/c1ccc(Cl)c(Cl)c1)NCCCCCN1CCCC(c2c[nH]c3ccccc23)C1 (stereo not drawn) shows Inhibition below 30% fulfilled

Same question for `O=C(Nc1cccc(-c2ccc(-c3nc4cc(F)ccc4[nH]3)cc2)c1)c1csnn1` please. fulfilled

Same question for `Cc1cnccc1/C=C/c1cccc(OCCCN2CCc3ccc(S(C)(=O)=O)cc3CC2)c1` please. fulfilled

Same question for `CN1CCC(NCc2ccc(-c3cccc(S(=O)(=O)NCc4ccccc4)c3)cc2)CC1.O=C(O)C(F)(F)F` please. not fulfilled

Same question for `Br.COc1cccc(OC)c1OCCCON1C(=N)N=C(N)NC1(C)C` please. not fulfilled

Same question for `Cc1cc(N[C@@H](Cc2ccccc2)C(=O)Nc2ccccc2)nc(NCCc2ccccn2)n1.O=C(O)C(F)(F)F` please. fulfilled

Same question for COc1cc(OC)c(NC(=O)C2c3ccccc3C(=O)N(CC(C)C)C2c2cccs2)cc1Cl (stereo not drawn) please. fulfilled

Same question for `CCOc1ccc2ccccc2c1C(=O)Nc1cc(C)nn1-c1nc(C)cc(=O)[nH]1` please. fulfilled

Same question for CC(C)(C)SC1SC(SC(C)(C)C)C(OC(=O)c2ccccc2)C(OC(=O)c2ccccc2)C1OC(=O)c1ccccc1 (stereo not drawn) please. fulfilled

Same question for Cc1cccc2nc(-c3ccc(-c4ccc(CN5CCCC(N)C5)cc4)cc3)[nH]c12.O=C(O)C(F)(F)F (stereo not drawn) please. not fulfilled

Same question for `Cc1ccc(S(=O)(=O)N2CCCN(C(=O)c3cc(-c4ccccc4)[nH]n3)CC2)cc1` please. fulfilled

Same question for `COc1cccc(Nc2nccc(-c3c(-c4cccc(NC(=O)c5c(F)cccc5F)c4)nn4ccccc34)n2)c1` please. not fulfilled

Same question for COc1ccccc1C(C)NCC(=O)Nc1cccc(C(=O)Nc2cccc(C(F)(F)F)c2)c1 (stereo not drawn) please. not fulfilled

Same question for `CCCCN1CCCN(Cc2cccc(NC(=O)c3ccc(-c4ccccc4)cc3)c2)CC1.O=C(O)C(F)(F)F` please. fulfilled

Same question for CCc1cc(Br)c2c(c1)C(NCCCNc1cc(=O)c3ccccc3[nH]1)CCN2 (stereo not drawn) please. fulfilled

Same question for `COc1ccc(-n2cc(C(=O)c3cc(Br)ccc3O)cc(C#N)c2=O)cc1Cl` please. fulfilled

Same question for `CC(C)(CN)c1nc(-c2ccc(Cl)c(O)c2)c(-c2ccnc(N)n2)[nH]1` please. not fulfilled

Same question for `Cl.O=c1n(CC2CCCCC2)c2cc(Cl)cc(OCCNc3ccncc3)c2n1CC1CCCCC1` please. fulfilled
